Biological target: human V2 receptor (Homo sapiens, UniProt P30518)
Construct: expressed in transfected cells; host or cells: CHO K1 (ATCC) expressing firefly luciferase under a CRE-responsive promoter
Sequence (P30518 whole entry): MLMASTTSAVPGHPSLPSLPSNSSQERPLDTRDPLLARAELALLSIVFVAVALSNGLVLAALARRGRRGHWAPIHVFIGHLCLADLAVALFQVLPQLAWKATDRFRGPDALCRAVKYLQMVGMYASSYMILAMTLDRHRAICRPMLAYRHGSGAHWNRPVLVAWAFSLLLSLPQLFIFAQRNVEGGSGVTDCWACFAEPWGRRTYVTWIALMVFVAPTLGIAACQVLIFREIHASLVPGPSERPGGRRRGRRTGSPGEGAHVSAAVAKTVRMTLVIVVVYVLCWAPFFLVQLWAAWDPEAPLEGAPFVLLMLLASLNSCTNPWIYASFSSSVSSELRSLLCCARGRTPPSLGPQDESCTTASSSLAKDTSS
Experiment: Cellular in vitro assay for determining vasopressin receptor activity, V2 receptor cell line (CHO, CRE-luciferase)
Format: cell-based
Conditions: CHO cell line transfected with human V2 receptor; [Arg8]-vasopressin at EC50 concentration, 3 hours; read-out: IC50 hV2
Protocol: B-1. Cellular In Vitro Assay for Determining Vasopressin Receptor Activity The identification of agonists and antagonists of the V1a and V2 vasopressin receptors from humans, rats and dogs as well as the quantification of the activity of the compounds of the invention is carried out using recombinant cell lines. […] The bioluminescence of the cell lines is detected using a suitable luminometer [Milligan G, Marshall F, Rees S, Trends in Pharmacological Sciences 17, 235-237 (1996)]. […]
pIC50: −log10 of the molar value.
quantity_measured: pIC50

NC(CNC(=O)c1cccc(Cl)c1-n1cnc(Cn2nc(-c3ccc(Cl)cc3)n(C[C@H](O)C(F)(F)F)c2=O)n1)C(F)(F)F (mixture of isomers) ... 6.28
Cc1ccccc1NC(=O)c1ccccc1-n1cnc(Cn2nc(-c3ccc(Cl)cc3)n(C[C@H](O)C(F)(F)F)c2=O)n1 ... 7.15
CC1(C(=O)Nc2ncccc2-n2cnc(Cn3nc(-c4ccc(Cl)cc4)n(C[C@H](O)C(F)(F)F)c3=O)n2)COC1 ... 5.94

a = O=C(NCC(F)(F)F)c1cccc(Cl)c1-n1cnc(Cn2nc(-c3ccc(Cl)cc3)n(C[C@H](O)C(F)(F)F)c2=O)n1
b = O=C(Nc1n[nH]cc1Cl)c1ccccc1-n1cnc(Cn2nc(-c3ccc(Cl)cc3)n(C[C@H](O)C(F)(F)F)c2=O)n1
c = NC(=O)[C@H]1CCCN1C(=O)c1ccccc1-n1cnc(Cn2nc(-c3ccc(Cl)cc3)n(C[C@H](O)C(F)(F)F)c2=O)n1
Rank ascending by pIC50. // ordering of labels required in reply
c, a, b
(c: 5.53, a: 6.04, b: 8.11)

###

target: human V2 receptor (Homo sapiens); construct: expressed in transfected cells; host or cells: CHO K1 (ATCC) expressing firefly luciferase under a CRE-responsive promoter; assay: Cellular in vitro assay for determining vasopressin receptor activity, V2 receptor cell line (CHO, CRE-luciferase); assay type: cell-based; conditions: CHO cell line transfected with human V2 receptor; [Arg8]-vasopressin at EC50 concentration; read-out: IC50 hV2
quantity_measured: IC50 (µM)

O=C(c1ncccc1-n1cnc(Cn2nc(-c3ccc(Cl)cc3)n(C[C@H](O)C(F)(F)F)c2=O)n1)N1CCC(F)(F)C1 ... 3.7

A = O=C(NC1CC1(F)F)c1cccc(C(F)(F)F)c1-n1cnc(Cn2nc(-c3ccc(Cl)cc3)n(C[C@H](O)C(F)(F)F)c2=O)n1 (mixture of isomers)
B = O=C(c1ncccc1-n1cnc(Cn2nc(-c3ccc(Cl)cc3)n(C[C@@H](O)C(F)(F)F)c2=O)n1)N1CCC[C@@H]1C(F)(F)F
C = O=C(c1ncccc1-n1cnc(Cn2nc(-c3ccc(Cl)cc3)n(C[C@H](O)C(F)(F)F)c2=O)n1)N1CCCCC1
D = COC[C@@H]1CCCN1C(=O)c1cccc(C(F)(F)F)c1-n1cnc(Cn2nc(-c3ccc(Cl)cc3)n(C[C@H](O)C(F)(F)F)c2=O)n1
E = O=C(c1cccc(Cl)c1-n1cnc(Cn2nc(-c3ccc(Cl)cc3)n(C[C@@H](O)C(F)(F)F)c2=O)n1)N1CCOCC1
Arrange by IC50, high to low. // list labels; follow requested order
E, D, B, C, A

A = CC1(NC(=O)c2cccnc2-n2nc(Cn3nc(-c4ccc(Cl)cc4)n(C[C@H](O)C(F)(F)F)c3=O)nc2C(=O)N2CCS(=O)(=O)CC2)CC1
B = CC1(C)CN(C(=O)c2ncccc2-n2cnc(Cn3nc(-c4ccc(Cl)cc4)n(C[C@H](O)C(F)(F)F)c3=O)n2)CCO1
I'd appreciate it if you could identify which of A and B has the greater IC50. Your answer should be the label of the entry you select.
B

1 = O=C(c1ncccc1-n1cnc(Cn2nc(-c3ccc(Cl)cc3)n(C[C@@H](O)C(F)(F)F)c2=O)n1)N1CCC[C@H]1C(F)(F)F
2 = O=C(N[C@@H]1C[C@@H]1F)c1cccc(C(F)(F)F)c1-n1cnc(Cn2nc(-c3ccc(Cl)cc3)n(C[C@H](O)C(F)(F)F)c2=O)n1 (racemic)
3 = CNC(=O)c1cccnc1-n1cnc(Cn2nc(-c3ccc(Cl)cc3)n(C[C@H](O)C(F)(F)F)c2=O)n1
4 = CN(CC1CC1)C(=O)c1ncccc1-n1cnc(Cn2nc(-c3ccc(Cl)cc3)n(C[C@@H](O)C(F)(F)F)c2=O)n1
5 = O=C(c1ncccc1-n1cnc(Cn2nc(-c3ccc(Cl)cc3)n(C[C@H](O)C(F)(F)F)c2=O)n1)N1CCC(C(F)(F)F)C1 (mixture of isomers)
Let's sort these by IC50, smallest first. Go ahead? I'd appreciate it if you listed the labels in the requested order.
3, 2, 5, 1, 4

###

target: human V1a receptor (Homo sapiens, UniProt P37288); construct: expressed in transfected cells; host or cells: CHO K1 (ATCC), also stably transfected with a modified aequorin; assay: Cellular in vitro assay for determining vasopressin receptor activity, V1a receptor cell line (CHO, aequorin luminescence); format: cell-based; details: selectivity ratio IC50 hV2 / IC50 hV1a
Sequence (P37288 whole entry): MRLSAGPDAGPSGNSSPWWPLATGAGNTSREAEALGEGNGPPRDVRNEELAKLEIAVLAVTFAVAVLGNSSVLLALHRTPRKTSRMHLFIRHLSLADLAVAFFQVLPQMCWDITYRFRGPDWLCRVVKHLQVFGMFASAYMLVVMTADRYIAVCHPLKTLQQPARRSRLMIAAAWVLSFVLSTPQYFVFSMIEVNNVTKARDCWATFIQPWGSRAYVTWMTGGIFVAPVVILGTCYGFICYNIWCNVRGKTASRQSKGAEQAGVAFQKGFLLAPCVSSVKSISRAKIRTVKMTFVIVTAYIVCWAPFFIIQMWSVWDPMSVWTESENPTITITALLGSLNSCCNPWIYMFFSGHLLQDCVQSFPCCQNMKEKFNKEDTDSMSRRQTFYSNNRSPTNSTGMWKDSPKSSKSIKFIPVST
quantity_measured: ratio IC50 hV2/hV1a

CCN(C(=O)c1ccccc1-n1cnc(Cn2nc(-c3ccc(Cl)cc3)n(C[C@H](O)C(F)(F)F)c2=O)n1)C(C)C ... 157.4

P = Cc1ccncc1NC(=O)c1ccccc1-n1cnc(Cn2nc(-c3ccc(Cl)cc3)n(C[C@H](O)C(F)(F)F)c2=O)n1
Q = N[C@H]1CCCC[C@@H]1NC(=O)c1ccccc1-n1cnc(Cn2nc(-c3ccc(Cl)cc3)n(C[C@H](O)C(F)(F)F)c2=O)n1
# min-compare on ratio IC50 hV2/hV1a between P and Q // return label of chosen record
P

###

biological target: human V2 receptor (Homo sapiens, UniProt P30518); construct: expressed in transfected cells; host or cells: CHO K1 (ATCC) expressing firefly luciferase under a CRE-responsive promoter; assay: Cellular in vitro assay for determining vasopressin receptor activity, V2 receptor cell line (CHO, CRE-luciferase); format: cell-based; settings: CHO cell line transfected with human V2 receptor; [Arg8]-vasopressin at EC50 concentration, 3 hours; read-out: IC50 hV2
quantity_measured: IC50 (nM)

A = O=C(Nc1ncccc1-n1cnc(Cn2nc(-c3ccc(Cl)cc3)n(C[C@H](O)C(F)(F)F)c2=O)n1)C1CC(F)(F)C1 [Example 80]
B = O=C(O)CCNc1ccncc1-n1cnc(Cn2nc(-c3ccc(Cl)cc3)n(C[C@H](O)C(F)(F)F)c2=O)n1 [Example 20]
C = O=C(NC1CC1)c1cccc(Cl)c1-n1cnc(Cn2nc(-c3ccc(Cl)cc3)n(C[C@H](O)C(F)(F)F)c2=O)n1 [Example 369]
Lab note: rank above entries, IC50 ascending. Answer format: the labels, in the requested order.
C, A, B

###

biological target: UniProt:P37288; experiment: Cellular in vitro assay for determining vasopressin receptor activity, V1a receptor cell line (CHO, aequorin luminescence); conditions: CHO cell line transfected with human V1a receptor; [Arg]-vasopressin at EC50 concentration; read-out: IC50 hV1a
quantity_measured: IC50 (nM)

CC1CN(C(=O)c2ncccc2-n2cnc(Cn3nc(-c4ccc(Cl)cc4)n(C[C@@H](O)C(F)(F)F)c3=O)n2)CCO1 (stereo partly drawn) ... 710

I = O=C(Nc1cc(O)[nH]n1)c1ccccc1-n1cnc(Cn2nc(-c3ccc(Cl)cc3)n(C[C@H](O)C(F)(F)F)c2=O)n1
II = CNC(=O)c1ccccc1-n1cnc(Cn2nc(-c3ccc(Cl)cc3)n(C[C@H](O)C(F)(F)F)c2=O)n1
III = O=C(c1ncccc1-n1cnc(Cn2nc(-c3ccc(Cl)cc3)n(C[C@@H](O)C(F)(F)F)c2=O)n1)N1CCOC(C(F)(F)F)C1 (stereo partly drawn)
IV = NC(CNC(=O)c1ncccc1-n1cnc(Cn2nc(-c3ccc(Cl)cc3)n(C[C@H](O)C(F)(F)F)c2=O)n1)C(F)(F)F (mixture of isomers)
V = O=C(CN1CCCCC1)Nc1ncccc1-n1cnc(Cn2nc(-c3ccc(Cl)cc3)n(C[C@H](O)C(F)(F)F)c2=O)n1
Put the entries in order of IC50, starting with the largest number. Form field (ranking): labels in requested order.
III, V, IV, I, II
(III: 750 nM, V: 155 nM, IV: 51 nM, I: 23.5 nM, II: 2.36 nM)

###

target: human V1a receptor (Homo sapiens, UniProt P37288); construct: expressed in transfected cells; host or cells: CHO K1 (ATCC), also stably transfected with a modified aequorin; assay: Cellular in vitro assay for determining vasopressin receptor activity, V1a receptor cell line (CHO, aequorin luminescence); format: cell-based; conditions: selectivity ratio IC50 hV2 / IC50 hV1a
quantity_measured: ratio IC50 hV2/hV1a

1 = COC[C@@H]1CCCN1C(=O)c1cccc(C(F)(F)F)c1-n1cnc(Cn2nc(-c3ccc(Cl)cc3)n(C[C@H](O)C(F)(F)F)c2=O)n1 [Example 423]
2 = NC(=O)[C@H]1CC(F)(F)CN1C(=O)c1cccc(Cl)c1-n1cnc(Cn2nc(-c3ccc(Cl)cc3)n(C[C@@H](O)C(F)(F)F)c2=O)n1 [Example 409]
3 = CC1(NC(=O)c2ncccc2-n2cnc(Cn3nc(-c4ccc(Cl)cc4)n(C[C@@H](O)C(F)(F)F)c3=O)n2)CC1 [Example 483]
Can you order these entries from above by ratio IC50 hV2/hV1a? Start with the largest number and work down. A ranking is expressed here by listing the labels in the requested order.
1, 2, 3
